- EXPERIMENTAL_SYSTEM: human FLAP (Homo sapiens (Human), UniProt P20292)
- Sequence (P20292 whole entry): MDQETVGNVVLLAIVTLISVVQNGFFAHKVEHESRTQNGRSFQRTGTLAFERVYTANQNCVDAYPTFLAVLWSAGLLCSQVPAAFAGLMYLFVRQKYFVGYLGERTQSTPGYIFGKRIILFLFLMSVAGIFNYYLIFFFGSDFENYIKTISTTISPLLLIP
- EXPERIMENTAL_PROTOCOL: FLAP binding assay (HTRF format)
- MEASUREMENT_SETUP: wild type FLAP, HTRF format
Structures can show the parent of a compound that is named as a salt.
ASSAY_METRIC: Ki (µM)

(I) CC(C)(C)NS(=O)(=O)c1ccccc1-c1ccc(-c2cnc3[nH]cc(CO)c3c2)c(F)c1
(II) C[C@@H](NS(=O)(=O)c1ccccc1-c1ccc(-c2cnc(N)nc2)nc1)C(F)(F)F [Example 686, trifluoroacetic acid salt]
Larger number for Ki: I , or II ? Answer format: the label of the selected item.
II

(P) COc1c(-c2ccc(C(F)(F)F)cc2)ccc(-c2cnc(N)cn2)c1F
(Q) CC(C)(CN)S(=O)(=O)c1ccccc1-c1ccc(-c2cnc(N)cn2)c(F)c1
Of the pair P and Q , name the member with the lesser recorded Ki. Answer format: the label of the selected item.
P

(P) Nc1cnc(-c2ccc(-c3ccccc3O)cc2F)cn1
(Q) N#Cc1nc(-c2ccc(-c3ccccc3C(=O)N3CCOCC3)cc2F)cnc1N
(R) Nc1cnc(-c2ccc(-c3ccccc3C(=O)N3CCC[C@H](O)C3)cc2F)cn1
Order the items by recorded Ki; the first position goes to the largest value. The reply should contain the labels ordered as requested.
Q, R, P
(Q: 1.25 µM, R: 0.573 µM, P: 0.032 µM)

// provenance: patent US9079866B2
